# ASSAYED_TARGET: Gag-Pol polyprotein [588-1027]/[588-1147] (Human immunodeficiency virus 1)
# Construct: 588-1027; 588-1147
# ASSAY_NOTES: HIV-1 RT Assay
# SETTINGS: pH 7.8; 37 °C
Can you tell me pIC50 for the items I'm about to list?
Numbers only, as −log10 of the molar value.

1) Cc1csc(NC(=S)NCCc2ccccc2)n1    7.00

Now turn to the next molecule.
## Input Return reported pIC50. Input molecule: CCc1csc(NC(=S)NCCc2c(F)cccc2F)n1
## Output 8.26

###

# ASSAYED_TARGET: Gag-Pol polyprotein [588-1027]/[588-1147] (Human immunodeficiency virus 1, UniProt P04585)
# Construct: 588-1027; 588-1147
# ASSAY_NOTES: HIV-1 RT Assay
# SETTINGS: pH 7.8; 37 °C
pIC50: −log10 of the molar value.
Can you tell me pIC50 for the items I'm about to list?

1. S=C(NCCc1ccccc1)Nc1cc[nH]n1    < 5.00
2. O=C(O)c1csc(/N=C(\S)NCCc2ccccc2)n1    < 5.00

Now turn to the next compound.
## Input Return reported pIC50. Input compound: S=C(NCCc1ccccc1)Nc1ncccc1Br
## Output < 5.00

From: BindingDB's records for doi:10.1021/jm00025a010
